// provenance: patent US11840686B2

Tested on: human PKK mRNA
Assay: Dose-dependent antisense inhibition of human PKK in HepaRG cells, 0.19-5.00 uM (Example 5)
Type: cell-based
Conditions: Table 34; 0.19 μM, HepaRG, electroporation, ~16 h
Strand notation (5' to 3'): a small letter for the sugar, then the base; units joined by * are phosphorothioate-linked, units joined directly phosphodiester-linked; [ ] holds rarer units or linkages, { } end groups; capitals alone tell only the bases. e = 2'-O-(2-methoxyethyl) (MOE); [5mC] = 5-methylcytosine; d = 2'-deoxy (DNA)
# percent inhibition of PKK at 0.19 μM per record follows
API: value field is a number in %; no unit string.

In the examples that follow, each entry is paired with its recorded percent inhibition of PKK at 0.19 μM.
Exercise: For the substance 546827 (e[5mC]*eA*eG*eT*eA*dT*d[5mC]*dA*d[5mC]*dT*dG*dT*dA*d[5mC]*dT*eA*eG*eT*eT*eT; antisense) [compound 546827] , what percent inhibition of PKK at 0.19 μM is on record?
Key: 32

Exercise: What do you get for 546825 (eG*eT*eA*eT*e[5mC]*dA*d[5mC]*dT*dG*dT*dA*d[5mC]*dT*dA*dG*eT*eT*eT*e[5mC]*e[5mC]; antisense) [compound 546825] ?
Key: 46

Exercise: Try this substance next: 546846 (e[5mC]*eT*eG*eT*e[5mC]*d[5mC]*dT*dA*dT*dA*dT*d[5mC]*dA*d[5mC]*dT*eG*eT*e[5mC]*e[5mC]*eT; antisense) [compound 546846]
Key: 36

In the following, a different substance is considered.
Exercise: Record request: percent inhibition of PKK at 0.19 μM value, item 531231 (eT*eA*eT*e[5mC]*eA*d[5mC]*dT*dG*dT*dA*d[5mC]*dT*dA*dG*dT*eT*eT*e[5mC]*e[5mC]*eT) [compound 531231]
Key: 32
